// provenance: ChEMBL document CHEMBL1144968

MEASUREMENT_TARGET: 5-hydroxytryptamine receptor 2A (Homo sapiens, UniProt P28223)
Sequence (P28223 whole entry): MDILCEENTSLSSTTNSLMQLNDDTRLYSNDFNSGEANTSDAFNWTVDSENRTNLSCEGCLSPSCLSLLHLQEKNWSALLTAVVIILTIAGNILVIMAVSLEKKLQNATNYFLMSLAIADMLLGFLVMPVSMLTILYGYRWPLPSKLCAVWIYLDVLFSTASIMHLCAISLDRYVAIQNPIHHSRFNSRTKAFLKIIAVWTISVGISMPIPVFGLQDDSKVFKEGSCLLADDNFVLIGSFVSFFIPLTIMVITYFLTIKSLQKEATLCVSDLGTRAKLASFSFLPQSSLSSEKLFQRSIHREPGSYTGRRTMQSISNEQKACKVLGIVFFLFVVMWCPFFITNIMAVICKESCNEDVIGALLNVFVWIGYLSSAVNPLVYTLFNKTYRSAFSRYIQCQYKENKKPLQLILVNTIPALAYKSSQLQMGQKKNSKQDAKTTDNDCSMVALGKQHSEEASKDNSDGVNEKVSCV
Output class 1 for records whose Ki is lower than 2 nM, class 0 for records at or above 2 nM.

>  <COMPOUND>
CC(=O)Nc1cc(F)ccc1C(=O)CCCN1CC[C@H]2[C@@H](C1)c1cccc3c1N2CCCS3

>  <MEASUREMENT_TARGET>
5-hydroxytryptamine receptor 2A (Homo sapiens, UniProt P28223)

>  <GROUP>
class 1

$$$$
>  <COMPOUND>
Nc1cc(F)ccc1C(=O)CCCN1CC[C@@H]2[C@H](C1)c1cccc3c1N2CCC3

>  <MEASUREMENT_TARGET>
5-hydroxytryptamine receptor 2A (Homo sapiens, UniProt P28223)

>  <GROUP>
class 1

$$$$
>  <COMPOUND>
Nc1ccccc1C(=O)CCCN1CC[C@H]2[C@@H](C1)c1cccc3c1N2CCCC3

>  <MEASUREMENT_TARGET>
5-hydroxytryptamine receptor 2A (Homo sapiens, UniProt P28223)

>  <GROUP>
class 1

$$$$
>  <COMPOUND>
Nc1ccccc1C(=O)CCCN1CC[C@H]2[C@@H](C1)c1cccc3c1N2CCS3

>  <MEASUREMENT_TARGET>
5-hydroxytryptamine receptor 2A (Homo sapiens, UniProt P28223)

>  <GROUP>
class 1

$$$$
>  <COMPOUND>
Nc1ccc(F)cc1C(=O)CCCN1CC[C@H]2[C@@H](C1)c1cccc3c1N2CCCS3

>  <MEASUREMENT_TARGET>
5-hydroxytryptamine receptor 2A (Homo sapiens, UniProt P28223)

>  <GROUP>
class 0

$$$$
>  <COMPOUND>
Nc1cc(F)ccc1C(=O)CCCN1CC[C@@H]2[C@H](C1)c1cccc3c1N2CCS3

>  <MEASUREMENT_TARGET>
5-hydroxytryptamine receptor 2A (Homo sapiens, UniProt P28223)

>  <GROUP>
class 1

$$$$
>  <COMPOUND>
Nc1ccccc1C(=O)CCCN1CC[C@@H]2[C@H](C1)c1cccc3c1N2CCS3

>  <MEASUREMENT_TARGET>
5-hydroxytryptamine receptor 2A (Homo sapiens, UniProt P28223)

>  <GROUP>
class 0

$$$$
>  <COMPOUND>
Nc1cc(F)ccc1C(=O)CCCN1CC[C@@H]2[C@H](C1)c1cccc3c1N2CCCS3

>  <MEASUREMENT_TARGET>
5-hydroxytryptamine receptor 2A (Homo sapiens, UniProt P28223)

>  <GROUP>
class 0

$$$$
>  <COMPOUND>
Nc1ccccc1C(=O)CCCN1CC[C@H]2[C@@H](C1)c1cccc3c1N2CCO3

>  <MEASUREMENT_TARGET>
5-hydroxytryptamine receptor 2A (Homo sapiens, UniProt P28223)

>  <GROUP>
class 1

$$$$

----------
Target chain: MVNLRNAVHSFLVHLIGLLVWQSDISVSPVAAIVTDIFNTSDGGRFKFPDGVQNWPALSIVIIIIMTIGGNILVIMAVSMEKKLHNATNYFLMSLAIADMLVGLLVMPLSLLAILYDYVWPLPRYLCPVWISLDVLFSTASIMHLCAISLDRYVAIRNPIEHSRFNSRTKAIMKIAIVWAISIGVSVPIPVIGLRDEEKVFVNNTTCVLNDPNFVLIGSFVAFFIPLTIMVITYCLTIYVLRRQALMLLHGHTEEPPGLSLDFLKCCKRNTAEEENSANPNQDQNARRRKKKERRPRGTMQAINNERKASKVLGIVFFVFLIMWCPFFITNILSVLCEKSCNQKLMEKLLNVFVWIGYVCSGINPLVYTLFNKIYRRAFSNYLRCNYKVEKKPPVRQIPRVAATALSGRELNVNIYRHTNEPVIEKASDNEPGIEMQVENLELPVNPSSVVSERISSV
pKi: −log10 of the molar value.
Where pKi equals or exceeds 7, the correct label is true; where it does not, the label is false.

>  <COMPOUND>
Nc1ccccc1C(=O)CCCN1CC[C@@H]2[C@H](C1)c1cccc3c1N2CCCS3

>  <GROUP>
false

$$$$
>  <COMPOUND>
CCNC(=O)Nc1cc(F)ccc1C(=O)CCCN1CC[C@H]2[C@@H](C1)c1cccc3c1N2CCCS3

>  <GROUP>
true

$$$$
>  <COMPOUND>
Nc1ccccc1C(=O)CCCN1CC[C@H]2[C@@H](C1)c1cccc3c1N2CCCS3 (stereo in doubt; 4)

>  <GROUP>
false

$$$$
>  <COMPOUND>
Nc1ccccc1C(=O)CCCN1CC[C@@H]2[C@H](C1)c1cccc3c1N2CCS3

>  <GROUP>
false

$$$$

----------
MEASUREMENT_TARGET: Dopamine D2 receptor and serotonin 2a receptor (Homo sapiens) (UniProt P14416+P28223)
Sequence (P14416 whole entry, looked up): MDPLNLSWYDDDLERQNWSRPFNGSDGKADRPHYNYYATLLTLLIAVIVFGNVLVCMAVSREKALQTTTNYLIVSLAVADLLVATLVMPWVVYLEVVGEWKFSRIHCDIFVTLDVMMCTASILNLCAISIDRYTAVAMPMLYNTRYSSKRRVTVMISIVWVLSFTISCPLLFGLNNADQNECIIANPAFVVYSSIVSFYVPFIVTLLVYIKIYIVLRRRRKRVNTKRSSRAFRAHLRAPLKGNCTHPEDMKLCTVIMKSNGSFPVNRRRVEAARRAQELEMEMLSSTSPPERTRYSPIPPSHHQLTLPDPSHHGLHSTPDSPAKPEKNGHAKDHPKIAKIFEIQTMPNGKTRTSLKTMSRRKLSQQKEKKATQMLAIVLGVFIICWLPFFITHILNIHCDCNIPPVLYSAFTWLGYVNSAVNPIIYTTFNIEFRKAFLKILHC
Sequence (P28223 whole entry, looked up): as the sequence (P28223 whole entry) above
ASSAY_EXPLANATION: Selectivity ratio for inhibition of dopamine D2 receptor to that of 5-HT2A receptor.
Format: protein assay
Items are presented alongside their recorded Ratio.
MEASURED_PARAMETER: Ratio

>  <MOLECULE>
Nc1ccccc1C(=O)CCCN1CC[C@@H]2[C@H](C1)c1cccc3c1N2CCCS3

>  <MEASURED_PARAMETER>
Ratio

>  <RESULT>
0.57

$$$$
>  <MOLECULE>
CC(=O)Nc1cc(F)ccc1C(=O)CCCN1CC[C@H]2[C@@H](C1)c1cccc3c1N2CCCS3

>  <MEASURED_PARAMETER>
Ratio

>  <RESULT>
4.3

$$$$
>  <MOLECULE>
Nc1ccccc1C(=O)CCCN1CC[C@H]2[C@@H](C1)c1cccc3c1N2CCCS3 (stereo in doubt; 4)

>  <MEASURED_PARAMETER>
Ratio

>  <RESULT>
2.9

$$$$
>  <MOLECULE>
O=C(CCCN1CC[C@H]2[C@@H](C1)c1cccc3c1N2CCCS3)c1ccccc1

>  <MEASURED_PARAMETER>
Ratio

>  <RESULT>
6.3

$$$$
>  <MOLECULE>
Nc1cc(F)ccc1C(=O)CCCN1CC[C@@H]2[C@H](C1)c1cccc3c1N2CCC3

>  <MEASURED_PARAMETER>
Ratio

>  <RESULT>
24

$$$$
>  <MOLECULE>
Nc1cc(F)ccc1C(=O)CCCN1CC[C@H]2[C@@H](C1)c1cccc3c1N2CCO3

>  <MEASURED_PARAMETER>
Ratio

>  <RESULT>
12

$$$$
>  <MOLECULE>
Nc1cc(O)ccc1C(=O)CCCN1CC[C@H]2[C@@H](C1)c1cccc3c1N2CCCS3

>  <MEASURED_PARAMETER>
Ratio

>  <RESULT>
0.56

$$$$
>  <MOLECULE>
Nc1ccccc1C(=O)CCCN1CC[C@H]2[C@@H](C1)c1cccc3c1N2CCS3

>  <MEASURED_PARAMETER>
Ratio

>  <RESULT>
51

$$$$
>  <MOLECULE>
Nc1ccccc1C(=O)CCCN1CC[C@H]2[C@@H](C1)c1cccc3c1N2CCCS3 (stereo in doubt; (+)-4)

>  <MEASURED_PARAMETER>
Ratio

>  <RESULT>
25

$$$$
>  <MOLECULE>
Nc1ccccc1C(=O)CCCN1CC[C@@H]2[C@H](C1)c1cccc3c1N2CCS3

>  <MEASURED_PARAMETER>
Ratio

>  <RESULT>
2.9

$$$$
>  <MOLECULE>
Nc1cc(F)ccc1C(=O)CCCN1CC[C@H]2[C@@H](C1)c1cccc3c1N2CCCC3

>  <MEASURED_PARAMETER>
Ratio

>  <RESULT>
5.8

$$$$
>  <MOLECULE>
O=CNc1cc(F)ccc1C(=O)CCCN1CC[C@H]2[C@@H](C1)c1cccc3c1N2CCCS3

>  <MEASURED_PARAMETER>
Ratio

>  <RESULT>
0.09

$$$$
>  <MOLECULE>
Nc1cc(F)ccc1C(=O)CCCN1CC[C@H]2[C@@H](C1)c1cccc3c1N2CCS3

>  <MEASURED_PARAMETER>
Ratio

>  <RESULT>
13

$$$$
>  <MOLECULE>
Nc1ccccc1C(=O)CCCN1CC[C@@H]2[C@H](C1)c1cccc3c1N2CCC3

>  <MEASURED_PARAMETER>
Ratio

>  <RESULT>
17

$$$$
>  <MOLECULE>
Nc1ccc(F)cc1C(=O)CCCN1CC[C@H]2[C@@H](C1)c1cccc3c1N2CCCS3

>  <MEASURED_PARAMETER>
Ratio

>  <RESULT>
1

$$$$
>  <MOLECULE>
Nc1cc(F)ccc1C(=O)CCCN1CC[C@@H]2[C@H](C1)c1cccc3c1N2CCO3

>  <MEASURED_PARAMETER>
Ratio

>  <RESULT>
5.7

$$$$
>  <MOLECULE>
Nc1ccccc1C(=O)CCCN1CC[C@@H]2[C@H](C1)c1cccc3c1N2CCO3

>  <MEASURED_PARAMETER>
Ratio

>  <RESULT>
5

$$$$
>  <MOLECULE>
Nc1cc(F)ccc1C(=O)CCCN1CC[C@H]2[C@@H](C1)c1cccc3c1N2CCCS3 (stereo in doubt; 6)

>  <MEASURED_PARAMETER>
Ratio

>  <RESULT>
5.9

$$$$
